Property: Inhibition; scope: individual compounds
Test: The compound was evaluated for inhibition of topoisomerase I mediated DNA relaxation of supercoiled DNA
Assay type: functional

CC[C@@]1(O)C(=O)OCc2c1cc1n(c2=O)Cc2c-1nc1ccc(CCc3ccc4nc5c(c([Si](C)(C)C)c4c3)Cn3c-5cc4c(c3=O)COC(=O)[C@]4(O)CC)cc1c2[Si](C)(C)C | > 20 µM
CC[C@@]1(O)C(=O)OCc2c1cc1n(c2=O)Cc2c-1nc1ccc(O)cc1c2[Si](C)(C)C | < 0.1 µM
CC[C@@]1(O)C(=O)OCc2c1cc1n(c2=O)Cc2c-1nc1cc(F)ccc1c2[Si](C)(C)C | < 0.1 µM

Moving on to another compound below.
Notebook: CC[C@@]1(O)C(=O)OCc2c1cc1n(c2=O)Cc2c-1nc1ccc(OC(C)=O)cc1c2[Si](C)(C)C , Inhibition read as < 0.1 µM

====

Property: Inhibition; scope: individual compounds
Experiment: The compound was evaluated for inhibition of topoisomerase I mediated DNA relaxation of supercoiled DNA; 0.1-1
Assay type: functional
Enter your answer as a number in µM; do not include the unit.

Record excerpt, results attached:
CC[C@@]1(O)C(=O)OCc2c1cc1n(c2=O)Cc2c-1nc1ccccc1c2[Si](C)(C)C(C)(C)C | 1
CC[C@@]1(O)C(=O)OCc2c1cc1n(c2=O)Cc2c-1nc1cc(F)c(N)cc1c2[Si](C)(C)C | 0.1
CC[C@@]1(O)C(=O)OCc2c1cc1n(c2=O)Cc2c-1nc1ccccc1c2[Si](C)(C)C | 1

Moving on to another compound below.
Notebook: CC[C@@]1(O)C(=O)OCc2c1cc1n(c2=O)Cc2c-1nc1cccc(F)c1c2[Si](C)(C)C , Inhibition read as 0.1

Source: ChEMBL document CHEMBL1159184
